- Test system: B. subtilis 168;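 note: first quartile when negative (synergy) and third quartile when positive (antagonism)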
- test.details: Bliss interaction score (quartile over a dose matrix) (fitness difference); higher = more antagonism (negative = synergy)
measurement.label: Bliss interaction score

1. C[C@@H](O)[C@H]1C(=O)N2C(C(=O)O)=C(SCCNC=N)C[C@H]12 [Imipenem] + O=C1CN(/N=C/c2ccc([N+](=O)[O-])o2)C(=O)N1 [Nitrofurantoin]: 0.0986
2. O=C(O[C@@H]1Cc2c(O)cc(O)cc2O[C@@H]1c1cc(O)c(O)c(O)c1)c1cc(O)c(O)c(O)c1 [EGCG] + CCC[C@@H]1C[C@@H](C(=O)N[C@@H]([C@H]2O[C@H](SC)[C@H](O)[C@@H](O)[C@H]2O)[C@@H](C)O)N(C)C1 [Lincomycin]: 0.102
3. CC(=O)OC[C@H]1O[C@@H]([S-])[C@H](OC(C)=O)[C@@H](OC(C)=O)[C@@H]1OC(C)=O.CCP(CC)CC.[Au+] [Auranofin] + COc1cc(Cc2cnc(N)nc2N)cc(OC)c1OC [Trimethoprim]: -0.0454
